Measurement Target: T1, monomeric human PRLR (hPRLR.mmh; SEQ ID NO:401) (Homo sapiens, UniProt P16471)
T1 construct: soluble monomeric (hPRLR.mmh); mmh (myc-myc-hexahistidine) (C)
T1 sequence (P16471 with tags, fused parts or gaps): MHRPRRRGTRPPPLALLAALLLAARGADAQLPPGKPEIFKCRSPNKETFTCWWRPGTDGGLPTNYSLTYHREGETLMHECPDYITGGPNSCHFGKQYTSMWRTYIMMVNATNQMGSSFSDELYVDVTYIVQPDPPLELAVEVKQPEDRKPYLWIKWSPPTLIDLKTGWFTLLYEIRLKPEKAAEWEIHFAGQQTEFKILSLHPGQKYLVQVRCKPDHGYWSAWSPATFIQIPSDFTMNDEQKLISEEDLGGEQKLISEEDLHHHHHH
Assay Method Text: Surface plasmon resonance (Biacore T200), antibody-capture format
Assay type: binding
Measurement Parameters: 37° C., analyte hPRLR.mmh
Could you please report measured kd for the items listed next?
Give bare numbers, in s⁻¹.

- H1H6966N: anti-PRLR antibody, human IgG1 Fc form of H2M6966N of Table 1; HCVR/LCVR SEQ ID NOs 338/346 (antibody, V domains shown, human IgG1 Fc) VH: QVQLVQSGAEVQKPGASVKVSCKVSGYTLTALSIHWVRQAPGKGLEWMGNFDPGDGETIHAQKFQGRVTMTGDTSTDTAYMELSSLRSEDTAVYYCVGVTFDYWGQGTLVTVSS VL: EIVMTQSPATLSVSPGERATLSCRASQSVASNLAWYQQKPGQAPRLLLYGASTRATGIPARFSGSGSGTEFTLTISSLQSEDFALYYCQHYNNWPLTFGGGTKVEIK: 0.00096

Here is another molecule to look at.
query: Look up kd of H1H6795P: fully human anti-PRLR antibody, human IgG1 Fc; HCVR/LCVR SEQ ID NOs 162/170 (antibody, V domains shown) VH: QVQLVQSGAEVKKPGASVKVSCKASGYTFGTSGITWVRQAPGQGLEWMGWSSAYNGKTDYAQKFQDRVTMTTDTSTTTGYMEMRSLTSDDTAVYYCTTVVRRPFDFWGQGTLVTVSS VL: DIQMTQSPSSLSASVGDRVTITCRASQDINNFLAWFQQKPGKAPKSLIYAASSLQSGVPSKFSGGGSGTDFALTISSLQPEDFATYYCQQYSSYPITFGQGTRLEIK and report it.
result: 0.0052
